Entry source: patent US20110178053A1

molecular target: Pim-3 (Homo sapiens, UniProt Q86V86); construct: His6-labelled recombinant full-length human Pim-1, Pim-2 or Pim-3 protein; His6; made in house; assay: TR-FRET assay, Pim-3 kinase (phosphorylation of Bad Ser112); format: biochemical; details: comparative compounds (Compound No., not claimed); read-out: IC50 Pim3
reported endpoint: IC50

smiles_notation=COc1cc2c(cn1)[nH]c1cnc(-c3cccnc3)cc12 reported_value="> 5 µM"

Now let's try a different one.
// recorded IC50 for c1cncc(-c2cnc3[nH]c4ncccc4c3c2)c1 : > 5 µM

* * *

molecular target: Pim-2 (Homo sapiens, UniProt Q9P1W9); construct: His6-labelled recombinant full-length human Pim-1, Pim-2 or Pim-3 protein; His6; made in house; assay: TR-FRET assay, Pim-2 kinase (phosphorylation of Bad Ser112); assay type: biochemical; conditions: TR-FRET; ATP 40 μM; read-out: IC50 Pim2
Sequence (Q9P1W9 whole entry): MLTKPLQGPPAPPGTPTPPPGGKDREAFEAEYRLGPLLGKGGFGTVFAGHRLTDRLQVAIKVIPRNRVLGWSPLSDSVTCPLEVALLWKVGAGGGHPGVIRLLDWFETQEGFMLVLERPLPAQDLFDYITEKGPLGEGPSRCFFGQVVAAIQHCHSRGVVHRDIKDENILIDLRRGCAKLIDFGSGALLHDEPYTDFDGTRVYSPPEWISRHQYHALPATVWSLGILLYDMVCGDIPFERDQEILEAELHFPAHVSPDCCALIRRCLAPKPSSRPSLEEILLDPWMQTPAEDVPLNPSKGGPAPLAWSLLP
reported endpoint: IC50

compound="Cn1ccc(-c2cnc3[nH]c4cnc(-c5cccnc5)cc4c3c2)n1 [Example 116]" reported_value="> 5 µM"
compound="c1cncc(-c2cc3c(cn2)[nH]c2ncc(-c4cccc(N5CCNCC5)c4)cc23)c1 [Example 132]" reported_value="0.1 to 1 µM"
compound="Cn1cc(-c2cc3c(cn2)[nH]c2ncccc23)cn1 [Example 39]" reported_value="1 to 5 µM"
compound="CN(C)c1cccc(-c2c(F)cnc3[nH]c4cnc(-c5cccnc5)cc4c23)c1 [Example 58]" reported_value="> 5 µM"
compound="CC(C)(C)OC(=O)c1cnc2[nH]c3cnc(-c4cccnc4)cc3c2c1 [Example 5]" reported_value="> 5 µM"

Reported IC50 for COc1cnc2[nH]c3cnc(-c4cccnc4)cc3c2c1 [Example 7] was 0.1 to 1 µM

// sample CC(=O)N1CCN(c2ccc(-c3cnc4[nH]c5cnc(-c6cccnc6)cc5c4c3)cc2)CC1 [Example 137] , its IC50 was 0.1 to 1 µM

Looking up CN(C)CCCN(c1ccc(-c2c(F)cnc3[nH]c4cnc(-c5cccnc5)cc4c23)cc1)S(C)(=O)=O [Example 49] , I found its IC50 recorded as 0.001 to 0.1 µM

// IC50 lookup, compound = CC(C)N1CCN(c2ccc(-c3cnc4[nH]c5cnc(-c6cccnc6)cc5c4c3)cc2)CC1 [Example 122] , result: 0.1 to 1 µM

Record summary for COc1cnc2[nH]c3cnc(-c4cnn(CC(=O)NCCN(C)C)c4)cc3c2c1 [Example 165] : reported IC50 = > 5 µM

Data point: Fc1cnc2[nH]c3cnc(-c4cccnc4)cc3c2c1/C=C/C1CC1 [Example 27] ; IC50 = > 5 µM

Reported IC50 for OC(COc1ccc(-c2c(F)cnc3[nH]c4cnc(-c5cccnc5)cc4c23)cc1)CN1CCOCC1 (centres unmarked) [Example 101] was 0.1 to 1 µM

// field: IC50; key: Fc1cnc2[nH]c3cnc(-c4cccnc4)cc3c2c1Cl [Example 37] ; value = > 5 µM

Please fill in: IC50 reported for O=S(=O)(NC1CC1)c1ccc(-c2c(F)cnc3[nH]c4cnc(-c5cccnc5)cc4c23)cc1 [Example 28] = > 5 µM

The compound listed as Oc1cccc(-c2c(F)cnc3[nH]c4cnc(-c5cccnc5)cc4c23)c1 [Example 26] has a reported IC50 of 1 to 5 µM

IC50 for Fc1cnc2[nH]c3cnc(-c4cccnc4)cc3c2c1-c1cccnc1 [Example 69] is > 5 µM

Query CCN(CC)CCCn1cc(-c2cnc3[nH]c4cnc(-c5cccnc5)cc4c3c2)cn1 [Example 127] yields IC50 of 0.1 to 1 µM
